biological target: Muscarinic acetylcholine receptor M5 (Homo sapiens); assay: Negative allosteric modulation of human M5 receptor expressed in CHO cells assessed as inhibition of acetyl choline-induced calcium mobilization at 10 uM preincubated for 150 secs followed by acetyl choline addition by Fluo-4-AM dye based fluorescence assay relative to acetyl choline; values are per cent of control
Range-based classes on measured residual activity: Low: < 3%; Medium: ≥ 3% and < 10%; High: ≥ 10%

CCOC(=O)N1CCN(c2ccc([C@@]34c5ccccc5C(=O)N3CCN4C(=O)c3ccc(F)c(F)c3)cc2)CC1 | Medium
O=C(c1ccc(F)c(F)c1)N1CCN2C(=O)c3ccccc3[C@@]12c1ccc(N2CCC[C@H]2c2cccnc2)cc1 | Medium
O=C(c1ccc(F)c(F)c1)N1CCN2C(=O)c3ccccc3[C@@]12c1ccc(N2CCCC(F)C2)cc1 (stereo partly drawn) | Medium
O=C(c1ccc(F)c(F)c1)N1CCN2C(=O)c3ccccc3[C@@]12c1ccc(NC2CCC2)cc1 | High
O=C(c1ccc(F)c(F)c1)N1CCN2C(=O)c3ccccc3[C@@]12c1ccc(N2CCc3ccccc3C2)cc1 | High
O=C(c1ccc(F)c(F)c1)N1CCN2C(=O)c3ccccc3[C@@]12c1ccc(N2CCCCC2C(F)(F)F)cc1 (stereo partly drawn) | Low
CN(c1ccc([C@@]23c4ccccc4C(=O)N2CCN3C(=O)c2ccc(F)c(F)c2)cc1)C1CCC1 | Low
CC1Cc2ccccc2N1c1ccc([C@@]23c4ccccc4C(=O)N2CCN3C(=O)c2ccc(F)c(F)c2)cc1 (stereo partly drawn) | High
O=C(c1ccc(F)c(F)c1)N1CCN2C(=O)c3ccccc3[C@@]12c1ccc(Cl)cc1 | Low
O=C(c1ccc(F)c(F)c1)N1CCN2C(=O)c3ccccc3[C@@]12c1ccc(N2CC[C@@H](F)C2)cc1 | Medium
O=C(c1ccc(F)c(F)c1)N1CCN2C(=O)c3ccccc3[C@@]12c1ccc(N2CCCC(F)(F)C2)cc1 | Medium
N#CC1CCCN(c2ccc([C@@]34c5ccccc5C(=O)N3CCN4C(=O)c3ccc(F)c(F)c3)cc2)C1 (stereo partly drawn) | High
O=C(c1ccc(F)c(F)c1)N1CCN2C(=O)c3ccccc3[C@@]12c1ccc(N2CCCCC2)cc1 | High
O=C(c1ccc(F)c(F)c1)N1CCN2C(=O)c3ccccc3[C@@]12c1ccc(N2CC3(C2)CC(F)(F)C3)cc1 | High
O=C(c1ccc(F)c(F)c1)N1CCN2C(=O)c3ccccc3[C@@]12c1ccc(N2CCC(C(F)(F)F)CC2)cc1 | Medium
CC1CCCN(c2ccc([C@@]34c5ccccc5C(=O)N3CCN4C(=O)c3ccc(F)c(F)c3)cc2)C1 (stereo partly drawn) | Medium
O=C(c1ccc(F)c(F)c1)N1CCN2C(=O)c3ccccc3[C@@]12c1ccc(N2CCC(F)(F)CC2)cc1 | Medium
O=C(c1ccc(F)c(F)c1)N1CCN2C(=O)c3ccccc3[C@@]12c1ccc(N2CCC(F)CC2)cc1 | High

----------
assay: Clearance in rat at 1 mg/kg, iv or 3 mg/kg, po by LC-MS/MS analysis; type: ADME, organism-based; conditions: in vivo
attribute_measured: clearance (mL/min/kg)

Cc1cc([C@@]23c4ccccc4C(=O)N2CCN3C(=O)c2ccc(F)c(F)c2)ccc1Cl | 82

----------
molecular target: Muscarinic acetylcholine receptor M5 (Homo sapiens, UniProt P08912); test: Negative allosteric modulation of human M5 receptor expressed in CHO cells assessed as inhibition of acetyl choline-induced calcium mobilization preincubated for 150 secs followed by acetyl choline addition by Fluo-4-AM dye based fluorescence assay; type: functional, cell-based; details: read-out: IC50
Sequence (P08912 whole entry): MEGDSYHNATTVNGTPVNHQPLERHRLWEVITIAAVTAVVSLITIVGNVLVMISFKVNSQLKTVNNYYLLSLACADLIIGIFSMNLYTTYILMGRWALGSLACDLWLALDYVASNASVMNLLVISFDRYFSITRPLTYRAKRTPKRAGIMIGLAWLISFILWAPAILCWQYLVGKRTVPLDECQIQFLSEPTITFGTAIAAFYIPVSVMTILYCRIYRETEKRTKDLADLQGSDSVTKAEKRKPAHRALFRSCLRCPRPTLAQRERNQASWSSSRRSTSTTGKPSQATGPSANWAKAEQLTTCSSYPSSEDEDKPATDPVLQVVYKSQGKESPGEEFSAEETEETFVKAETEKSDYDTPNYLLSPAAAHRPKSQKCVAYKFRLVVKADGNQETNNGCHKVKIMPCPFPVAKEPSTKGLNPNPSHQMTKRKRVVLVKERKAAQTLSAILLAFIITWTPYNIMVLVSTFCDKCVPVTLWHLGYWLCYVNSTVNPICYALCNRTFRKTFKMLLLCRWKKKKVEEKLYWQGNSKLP
The following compounds are shown together with reported IC50 values.
attribute_measured: IC50 (µM)

CC1Cc2ccccc2N1c1ccc([C@@]23c4ccccc4C(=O)N2CCN3C(=O)c2ccc(F)c(F)c2)cc1 (stereo partly drawn) | 4.55
O=C(c1ccc(F)c(F)c1)N1CCN2C(=O)c3ccccc3[C@@]12c1ccc(N2CCCCC2C(F)(F)F)cc1 (stereo partly drawn) | 5.7
O=C(c1ccc(F)c(F)c1)N1CCN2C(=O)c3ccccc3[C@@]12c1ccc(NC2CCC2)cc1 | 6.92
O=C(c1ccc(F)c(F)c1)N1CCN2C(=O)c3ccccc3[C@@]12c1ccc(N2CCCC(F)C2)cc1 (stereo partly drawn) | 6.36
O=C(c1ccc(F)c(F)c1)N1CCN2C(=O)c3ccccc3[C@@]12c1ccc(N2CCC(F)(F)CC2)cc1 | 1.82
O=C(c1ccc(F)c(F)c1)N1CCN2C(=O)c3ccccc3[C@@]12c1ccc(N2CCCCC2)cc1 | 6.04
O=C(c1ccc(F)c(F)c1)N1CCN2C(=O)c3ccccc3[C@@]12c1ccc(N2CCC(F)CC2)cc1 | 4.28
O=C(c1ccc(F)c(F)c1)N1CCN2C(=O)c3ccccc3[C@@]12c1ccc(N2CC[C@@H](F)C2)cc1 | 3.09
